Each item that follows carries a reported pA2.
# target-of-assay: Adrenergic receptor beta (Cavia porcellus)
# experiment-notes: Beta adrenergic receptor blocking activity measured by the inotropic effect was determined 1 hr after pretreament of the right atria in guinea pig
Respond with the number and no other words.

// below: answered molecules
C=C(c1cc(Cl)c(Cl)cc1OCC(O)CNC(C)C)n1ccnc1 (stereo unspecified) ... 6.23
C=C(c1ccccc1OCC(O)CNC(C)C)n1ccnc1C (stereo unspecified) ... 6.24
C=C(c1cccc(Cl)c1OCC(O)CNC(C)C)n1ccnc1 (stereo unspecified) ... 5.63
C=C(c1ccccc1OCC(O)CNC(C)(C)C)n1cccn1 (stereo unspecified) ... 8.01
C=C(c1cccc(OC)c1OCC(O)CNC(C)(C)C)n1cnc2ccccc21 (stereo unspecified) ... 7.03

Query pA2 on Adrenergic receptor beta (Cavia porcellus) for C=C(c1ccc(Cl)cc1OCC(O)CNC)n1ccnc1 (stereo unspecified)
6.21
